Hi there, I'd appreciate the recorded pKd for every entry that follows.
# measurement target: T1, Cynomolgus c-Kit (BLI analyte) (cynomolgus)
# T1 construct: also called Cynomoguls c-Kit
# assay method text: BLI (Octet), antibody on capture sensor
# reply with the number alone; pKd is -log10 of concentration in mol/L

Give pKd for the following binder: hSR1-3 (antibody, human IgG1, kappa, V domains shown, also called humanized SR1-3; hSR1-H2b / hSR1-L2) VH: QVQLVQSGAEVKKPGASVKVSCKASGYTFTSYNMHWVRQAPGQGLEWMGVIYSGNGDTSYAQKFQGRVTMTADKSTSTAYMELSSLRSEDTAVYYCARERDTRFGNWGQGTLVTVSS VL: DIQLTQSPSSLSASVGDRATITCRASESVDIYGNSFMHWYQQKPGKAPKLLIYLASNLESGVPSRFSGSGSGTDFTLTISSVQPEDFATYYCQQNNEDPYTFGQGTKLEIKR
9.48

Give pKd for the following binder: hSR1-1 (antibody, human IgG1, kappa, V domains shown, Humanized anti-c-Kit antibody; also called humanized SR1-1; hSR1-H2 / hSR1-L2) VH: QVQLVQSGAEVKKPGASVKVSCKASGYTFTSYNMHWVRQAPGQGLEWMGVIYSGNGDTSYAQKFQGRVTMTADTSTSTAYMELSSLRSEDTAVYYCARERDTRFGNWGQGTLVTVSS VL: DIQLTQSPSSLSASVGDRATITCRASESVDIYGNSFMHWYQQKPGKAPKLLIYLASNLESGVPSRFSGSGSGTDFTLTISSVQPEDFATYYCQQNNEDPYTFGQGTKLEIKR
9.63

Give pKd for the following binder: hSR1-2 (antibody, human IgG1, kappa, V domains shown, also called humanized SR1-2; hSR1-H3 / hSR1-L2) VH: QVQLVQSGAEVKKPGASVKMSCKASGYTFTSYNMHWVRQAPGQGLEWIGVIYSGNGDTSYAQKFQGRATLTADTSTSTAYMELSSLRSEDTAVYYCARERDTRFGNWGQGTLVTVSS VL: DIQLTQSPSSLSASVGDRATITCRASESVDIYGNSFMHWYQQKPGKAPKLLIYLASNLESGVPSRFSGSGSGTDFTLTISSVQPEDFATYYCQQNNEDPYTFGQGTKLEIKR
9.41

Give pKd for the following binder: hSR1-6 (antibody, human IgG1, kappa, V domains shown, also called humanized SR1-6; hSR1-H3 / hSR1-L2r) VH: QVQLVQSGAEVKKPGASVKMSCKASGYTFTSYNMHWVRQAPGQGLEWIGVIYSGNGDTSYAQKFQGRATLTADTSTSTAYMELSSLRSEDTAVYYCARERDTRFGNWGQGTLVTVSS VL: DIQLTQSPSSLSASVGDRATITCRASESVDIYGNSFMHWYQQKPGKAPKLLIYLASNLESGVPSRFSGSGSRTDFTLTISSVQPEDFATYYCQQNNEDPYTFGQGTKLEIKR
9.53
